Data provenance is ChEMBL document CHEMBL4020815.

Assay: Plasma concentration in CD-1 mouse at 10 mg/kg, po after 1 hr by LC-MS/MS method
Assay type: ADME, organism-based
measured_metric: concentration at 1 h (µM)
The answer is to be given in µM; state only the numeric part.

// query May I ask what concentration at 1 h has been recorded for O=c1[nH]ccc2cc(F)c(NS(=O)(=O)c3ccc(N4C[C@@H](F)[C@@H](O)C4)s3)cc12 (stereo in doubt) ?
// result 12

// query May I ask what concentration at 1 h has been recorded for O=c1ccc(-c2ccc(S(=O)(=O)Nc3cc4c(=O)[nH]ccc4cc3F)s2)c[nH]1 ?
// result 1.7

// query May I ask what concentration at 1 h has been recorded for O=c1[nH]ccc2cc(F)c(NS(=O)(=O)c3ccc(N4C[C@@H](O)C(F)(F)C4)s3)cc12 ?
// result 33
